Assay: in vivo
Conditions: male, Sprague-Dawley, rat
measurementName: bioavailability

Problem: Recorded bioavailability of CC(C)n1c(=O)c(C(=O)NC2CC3CCC(C2)N3CCCS(=O)(=O)N2CCN(C)CC2)cc2ccccc21 (stereo not shown) , please.
Solution: ~20%

###

Assay: in vivo
Conditions: male, Sprague-Dawley, rat, po, 5 mg/kg
measurementName: Cmax (µg/mL)
Write the value in µg/mL as a bare number.

Problem: Recorded Cmax of CC(C)n1c(=O)c(C(=O)NC2CC3CCC(C2)N3CCCS(=O)(=O)N2CCN(C)CC2)cc2ccccc21 (stereo not shown) [Example 17] , please.
Solution: 0.06

###

Molecular target: hERG cardiac potassium channel (Homo sapiens)
Construct: host or cells: CHO-K1 cells stably transfected with HERG cDNA
Sequence (Q12809 whole entry): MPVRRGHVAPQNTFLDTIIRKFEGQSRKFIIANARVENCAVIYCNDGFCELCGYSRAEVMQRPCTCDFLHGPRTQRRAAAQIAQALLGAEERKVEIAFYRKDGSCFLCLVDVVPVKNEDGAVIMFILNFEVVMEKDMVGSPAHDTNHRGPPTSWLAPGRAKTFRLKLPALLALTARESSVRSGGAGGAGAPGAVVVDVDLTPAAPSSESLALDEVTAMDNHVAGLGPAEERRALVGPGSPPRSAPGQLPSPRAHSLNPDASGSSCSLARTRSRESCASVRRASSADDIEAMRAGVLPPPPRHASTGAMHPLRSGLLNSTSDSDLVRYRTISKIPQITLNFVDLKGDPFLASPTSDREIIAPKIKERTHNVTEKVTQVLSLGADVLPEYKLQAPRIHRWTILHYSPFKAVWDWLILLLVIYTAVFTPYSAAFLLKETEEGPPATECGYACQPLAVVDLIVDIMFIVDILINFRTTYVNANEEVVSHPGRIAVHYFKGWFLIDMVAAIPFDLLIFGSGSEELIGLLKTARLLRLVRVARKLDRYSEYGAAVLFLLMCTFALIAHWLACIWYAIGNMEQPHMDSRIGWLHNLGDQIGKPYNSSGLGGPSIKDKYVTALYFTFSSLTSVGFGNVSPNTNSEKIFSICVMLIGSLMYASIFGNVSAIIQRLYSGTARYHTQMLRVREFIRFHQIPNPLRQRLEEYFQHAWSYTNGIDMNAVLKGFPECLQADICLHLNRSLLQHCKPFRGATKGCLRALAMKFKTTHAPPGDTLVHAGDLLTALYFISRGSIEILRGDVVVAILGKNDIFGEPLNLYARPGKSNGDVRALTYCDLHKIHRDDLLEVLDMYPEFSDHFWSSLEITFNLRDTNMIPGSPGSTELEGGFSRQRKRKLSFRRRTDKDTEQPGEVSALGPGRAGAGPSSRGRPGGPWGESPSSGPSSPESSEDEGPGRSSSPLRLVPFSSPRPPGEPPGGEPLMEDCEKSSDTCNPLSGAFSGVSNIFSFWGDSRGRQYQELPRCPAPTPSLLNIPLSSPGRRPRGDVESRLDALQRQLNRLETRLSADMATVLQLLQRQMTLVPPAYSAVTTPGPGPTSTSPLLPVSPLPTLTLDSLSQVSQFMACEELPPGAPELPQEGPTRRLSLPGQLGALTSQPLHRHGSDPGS
Experiment: in vitro
Assay type: cell-based
Conditions: pH 7.4
measurementName: inhibition at 5 min, 3 µM

Problem: Recorded inhibition at 5 min, 3 µM of CC(C)n1c(=O)c(C(=O)NC2CC3CCC(C2)N3CCCS(=O)(=O)N2CCN(C)CC2)cc2ccccc21 (stereo not shown) [Example 17] , please.
Solution: < 15%

// data source = patent US7875629B2
